# experimental.system: UniProt O15164
# Sequence (O15164 whole entry): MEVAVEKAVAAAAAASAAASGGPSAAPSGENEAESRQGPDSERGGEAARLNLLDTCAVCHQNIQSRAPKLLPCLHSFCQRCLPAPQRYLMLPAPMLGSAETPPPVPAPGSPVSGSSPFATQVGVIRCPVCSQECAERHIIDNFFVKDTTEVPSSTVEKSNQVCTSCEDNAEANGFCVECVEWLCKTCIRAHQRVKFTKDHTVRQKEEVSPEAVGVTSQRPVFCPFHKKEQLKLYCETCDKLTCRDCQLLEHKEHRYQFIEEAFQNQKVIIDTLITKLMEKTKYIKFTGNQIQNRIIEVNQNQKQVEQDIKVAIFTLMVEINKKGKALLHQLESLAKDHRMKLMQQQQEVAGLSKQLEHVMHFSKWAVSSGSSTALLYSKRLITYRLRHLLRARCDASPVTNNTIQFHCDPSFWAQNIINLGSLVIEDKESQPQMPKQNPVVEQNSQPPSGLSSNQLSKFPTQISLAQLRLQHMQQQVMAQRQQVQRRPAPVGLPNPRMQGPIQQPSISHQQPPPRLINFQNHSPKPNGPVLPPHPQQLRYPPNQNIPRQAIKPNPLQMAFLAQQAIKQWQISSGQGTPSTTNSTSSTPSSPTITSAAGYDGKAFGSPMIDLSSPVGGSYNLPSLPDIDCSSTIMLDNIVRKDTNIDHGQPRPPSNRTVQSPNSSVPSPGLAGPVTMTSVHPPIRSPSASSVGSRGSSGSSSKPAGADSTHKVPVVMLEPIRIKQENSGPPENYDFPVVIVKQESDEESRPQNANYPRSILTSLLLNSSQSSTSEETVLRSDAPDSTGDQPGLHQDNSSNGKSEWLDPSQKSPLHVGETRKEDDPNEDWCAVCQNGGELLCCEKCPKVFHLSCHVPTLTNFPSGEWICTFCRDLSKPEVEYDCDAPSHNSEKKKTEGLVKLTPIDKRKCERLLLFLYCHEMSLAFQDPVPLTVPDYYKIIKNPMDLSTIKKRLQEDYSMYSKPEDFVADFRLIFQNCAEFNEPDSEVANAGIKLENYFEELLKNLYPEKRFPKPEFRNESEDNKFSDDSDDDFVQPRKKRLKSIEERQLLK
# study.conditions: 50 uM
metric: inhibition

Query: Returns the measured inhibition for the input compound. Input: `Cc1nnc2c3ccccc3c(-c3ccc(N4CCOCC4)c(NS(=O)(=O)c4ccccc4Cl)c3)nn12`
Result: < 30%

Query: inhibition for `COc1ccc(S(=O)(=O)Nc2cc(-c3nn4c(C)nnc4c4ccccc34)ccc2N2CCN(C)CC2)cc1` ?
Result: < 30%

Query: Which inhibition value is on record for `Cc1nnc2c3ccccc3c(-c3ccc(N4CCOCC4)c(NS(C)(=O)=O)c3)nn12` ?
Result: < 30%

Query: Tell me the measured inhibition of `Cc1nnc2c3ccccc3c(-c3ccc(N4CCOCC4)c(NS(=O)(=O)c4ccc(Cl)cc4)c3)nn12` , please.
Result: < 30%

Values were extracted from ChEMBL document CHEMBL3108763.
